test method notes: Exposure in repeated dose 13-week toxicity study (free base)
particulars: male, rat, in vivo, 10 mg/kg/day, rats, M, 10 mg/kg/day, week 13, 13-week toxicity study; read-out: AUC(0-24)
property name: AUC(0-t) (µg·h/mL)
Give the quantity in µg·h/mL, number only.

Given the entry Cc1nc(N(C)C(=O)Cc2ccc(-c3ccccn3)cc2)sc1S(N)(=O)=O [Free base] , report its measured AUC(0-t).
133

====

test method notes: Exposure in 26-week repeated dose toxicity study (mesylate monohydrate)
Assay type: in vivo
particulars: male, rat, in vivo, 10 mg/kg/day, rats, M, 10 mg/kg/day, day 1, 26-week toxicity study; read-out: AUC(0-24)
property name: AUC(0-t)
# do not omit the unit; it follows the number

Given the entry CS(=O)(=O)O.Cc1nc(N(C)C(=O)Cc2ccc(-c3ccccn3)cc2)sc1S(N)(=O)=O.O [Mesylate monohydrate] , report its measured AUC(0-t).
119 µg·h/mL

====

test method notes: Exposure in 26-week repeated dose toxicity study (mesylate monohydrate)
Type: in vivo
particulars: female, rat, in vivo, 50 mg/kg/day, rats, F, week 13, 26-week toxicity study
property name: Cmax
# do not omit the unit; it follows the number

Given the entry CS(=O)(=O)O.Cc1nc(N(C)C(=O)Cc2ccc(-c3ccccn3)cc2)sc1S(N)(=O)=O.O [Mesylate monohydrate] , report its measured Cmax.
106 µg/mL

====

test method notes: Exposure in 26-week repeated dose toxicity study (mesylate monohydrate)
Type: in vivo
particulars: male, rat, in vivo, 250 mg/kg/day, rats, M, 250 mg/kg/day, day 1, 26-week toxicity study
property name: Cmax (µg/mL)
Give the quantity in µg/mL, number only.

Given the entry CS(=O)(=O)O.Cc1nc(N(C)C(=O)Cc2ccc(-c3ccccn3)cc2)sc1S(N)(=O)=O.O [Mesylate monohydrate] , report its measured Cmax.
134

====

test method notes: Water solubility, solubility screening
particulars: water
property name: solubility
# do not omit the unit; it follows the number

Given the entry Cc1nc(N(C)C(=O)Cc2ccc(-c3ccccn3)cc2)sc1S(N)(=O)=O [Free base] , report its measured solubility.
2 µg/mL

Given the entry CS(=O)(=O)O.Cc1nc(N(C)C(=O)Cc2ccc(-c3ccccn3)cc2)sc1S(N)(=O)=O.O [Mesylate monohydrate] , report its measured solubility.
1380 µg/mL

====

test method notes: Exposure in repeated dose 13-week toxicity study (free base)
particulars: female, rat, in vivo, 10 mg/kg/day, rats, F, 10 mg/kg/day, day 1, 13-week toxicity study; read-out: AUC(0-24)
property name: AUC(0-t) (µg·h/mL)
Give the quantity in µg·h/mL, number only.

Given the entry Cc1nc(N(C)C(=O)Cc2ccc(-c3ccccn3)cc2)sc1S(N)(=O)=O [Free base] , report its measured AUC(0-t).
159

====

test method notes: Exposure in 26-week repeated dose toxicity study (mesylate monohydrate)
Assay type: in vivo
particulars: male, rat, in vivo, 250 mg/kg/day, rats, M, 250 mg/kg/day, day 1, 26-week toxicity study; read-out: AUC(0-24)
property name: AUC(0-t) (µg·h/mL)
Give the quantity in µg·h/mL, number only.

Given the entry CS(=O)(=O)O.Cc1nc(N(C)C(=O)Cc2ccc(-c3ccccn3)cc2)sc1S(N)(=O)=O.O [Mesylate monohydrate] , report its measured AUC(0-t).
1980

====

test method notes: Exposure in 26-week repeated dose toxicity study (mesylate monohydrate)
Type: in vivo
particulars: male, rat, in vivo, 250 mg/kg/day, rats, M, 250 mg/kg/day, week 13, 26-week toxicity study; read-out: AUC(0-24)
property name: AUC(0-t) (µg·h/mL)
Give the quantity in µg·h/mL, number only.

Given the entry CS(=O)(=O)O.Cc1nc(N(C)C(=O)Cc2ccc(-c3ccccn3)cc2)sc1S(N)(=O)=O.O [Mesylate monohydrate] , report its measured AUC(0-t).
2780

====

test method notes: Exposure in 26-week repeated dose toxicity study (mesylate monohydrate)
Format: in vivo
particulars: male, rat, in vivo, 250 mg/kg/day, rats, M, week 13, 26-week toxicity study
property name: Cmax (µg/mL)
Give the quantity in µg/mL, number only.

Given the entry CS(=O)(=O)O.Cc1nc(N(C)C(=O)Cc2ccc(-c3ccccn3)cc2)sc1S(N)(=O)=O.O [Mesylate monohydrate] , report its measured Cmax.
169

====

test method notes: Exposure in repeated dose 13-week toxicity study (free base)
particulars: male, rat, in vivo, 250 mg/kg/day, rats, M, week 13, 13-week toxicity study
property name: Cmax
# do not omit the unit; it follows the number

Given the entry Cc1nc(N(C)C(=O)Cc2ccc(-c3ccccn3)cc2)sc1S(N)(=O)=O [Free base] , report its measured Cmax.
62.8 µg/mL

====

test method notes: Exposure in 26-week repeated dose toxicity study (mesylate monohydrate)
Assay type: in vivo
particulars: male, rat, in vivo, 50 mg/kg/day, rats, M, 50 mg/kg/day, day 1, 26-week toxicity study; read-out: AUC(0-24)
property name: AUC(0-t) (µg·h/mL)
Give the quantity in µg·h/mL, number only.

Given the entry CS(=O)(=O)O.Cc1nc(N(C)C(=O)Cc2ccc(-c3ccccn3)cc2)sc1S(N)(=O)=O.O [Mesylate monohydrate] , report its measured AUC(0-t).
634

====

test method notes: Exposure in repeated dose 13-week toxicity study (free base)
particulars: female, rat, in vivo, 250 mg/kg/day, rats, F, 250 mg/kg/day, week 13, 13-week toxicity study; read-out: AUC(0-24)
property name: AUC(0-t) (µg·h/mL)
Give the quantity in µg·h/mL, number only.

Given the entry Cc1nc(N(C)C(=O)Cc2ccc(-c3ccccn3)cc2)sc1S(N)(=O)=O [Free base] , report its measured AUC(0-t).
1170

====

test method notes: Exposure in repeated dose 13-week toxicity study (free base)
particulars: female, rat, in vivo, 50 mg/kg/day, rats, F, 50 mg/kg/day, week 13, 13-week toxicity study; read-out: AUC(0-24)
property name: AUC(0-t) (µg·h/mL)
Give the quantity in µg·h/mL, number only.

Given the entry Cc1nc(N(C)C(=O)Cc2ccc(-c3ccccn3)cc2)sc1S(N)(=O)=O [Free base] , report its measured AUC(0-t).
455

====

test method notes: Thermal analysis and polymorphic stability (DSC, TGA)
Type: physicochemical

{"compound": "Cc1ccc(S(=O)(=O)O)cc1.Cc1nc(N(C)C(=O)Cc2ccc(-c3ccccn3)cc2)sc1S(N)(=O)=O", "Thermal stability of hydrate": "labile"}
{"compound": "Cc1nc(N(C)C(=O)Cc2ccc(-c3ccccn3)cc2)sc1S(N)(=O)=O [Free base]", "Thermal stability of hydrate": "labile"}
{"compound": "Cc1nc(N(C)C(=O)Cc2ccc(-c3ccccn3)cc2)sc1S(N)(=O)=O.Cl [1xHCl]", "Thermal stability of hydrate": "labile"}
